# System: HS 578T breast
# Assay notes: NCI tumour cell line growth inhibition, 48 h
Measured property: TGI (µM)
Give a bare numeral; the unit µM is implied.

chemical_smiles=O=C1C(Br)=CC2(C=C1Br)CCN=c1c(O)c3c(c(O)c12)=NC=N3 units_of_measure=µM assay_value=71.5

Task item: Look up TGI with HS 578T breast for this compound: NCCCCn1c2c(c3ccccc3c1=O)C(=O)c1ccccc1-2
Reply: 4.75

###

# Test system: HCT-15 colon
# Assay notes: NCI tumour cell line growth inhibition, 48 h
TGI by entry:

Recorded results for 8 compounds are shown here.
compound=CCc1cccc(C)c1NC(C)=O measured_property=TGI assay_value="> 100 µM"
compound=N#Cc1nc(COCCOCc2ccccc2)oc1N measured_property=TGI assay_value="> 100 µM"
compound="CCC1(O)C(=O)OCc2c1cc1n(c2=O)Cc2cc3c(N)cccc3nc2-1 (stereo not given)" measured_property=TGI assay_value="25.2 µM"
compound="O=P(c1ccccc1)(c1ccccc1)C(NCc1ccccc1)c1ccc(F)cc1 (stereo not given)" measured_property=TGI assay_value="28.7 µM"
compound=N#CCCN(c1ccc(/C=C2\N=C(c3ccc(Cl)cc3)OC2=O)cc1)S(=O)(=O)c1ccccc1 measured_property=TGI assay_value="> 100 µM"
compound=COC(=O)c1cc2c(c(C(=O)OC)c1O)C(=O)C=CC2=O measured_property=TGI assay_value="> 49.4 µM"
compound="COc1ccc(-c2c(C(C)=O)c(-c3ccccc3)n(C3OC(COC(C)=O)C(OC(C)=O)C(OC(C)=O)C3OC(C)=O)c(=S)c2C#N)cc1 (stereo not given)" measured_property=TGI assay_value="> 100 µM"
compound="CC[C@@H]1/C=C/C=C/C[C@H](C)[C@@H](O)[C@](C)(O)C(=O)[C@H](C)[C@@H](O)[C@H](C)C(=O)[C@H](C)[C@@H](O)[C@H](C)/C=C/C(=O)O[C@H]2[C@@H](C)[C@@H](CC1)O[C@]1(O[C@H](CC(C)O)[C@H](C)CC1=O)[C@@H]2C (stereo not given in full)" measured_property=TGI assay_value="> 21.2 µM"

Task item: Reported TGI, compound Cc1c2c(nn1-c1ccc(S(=O)(=O)/N=C3\SCC(=O)N3C(=O)c3ccccc3)cc1)-c1ccccc1CC2 : ____
Reply: 49.5 µM
